experiment: RP, Waters ACQUITY Premier BEH C18, 100 × 2.1 mm, 1.7 µm, 40 °C, 0.3 to 0.4 mL/min, estimated dead time 0.73 min; A: water + 0.1% formic acid; B: acetonitrile + 0.1% formic acid; gradient (min/%B) 0/0.5 0.1/0.5 10/80 10.1/99.5 12/0.5 12.1/0.5 14.5/0.5; settings: stereoisomer not certain
Decide using LC retention time alone. Strictly below 3 min: condition met. Equal to or above 3 min: condition not met.

compound: O=C(O)C1CCCN1 (stereo not given)
group label: condition met
//
compound: CC(=O)OC1CC(=O)OC(C)(C)C2CC(=O)C3(C)C(CCC4(C)C(c5ccoc5)OC(=O)C5OC543)C12C (stereo not given)
group label: condition not met
//
compound: O=c1c(-c2ccc(O)cc2)coc2cc(O)cc(O)c12
group label: condition not met
//
compound: O=c1cc[nH]c(=O)[nH]1
group label: condition met
//
compound: NC(Cc1c[nH]c2ccc(O)cc12)C(=O)O (stereo not given) [5-HYDROXYTRYPTOPHAN]
group label: condition not met
